System: erythrocyte suspensions of human blood
test_name: Hemolytic activity, hemoglobin release
Format: cell-based
measurement_conditions: peptide 125 μM (table prints 125 µM); human blood erythrocytes 5% v/v; absorbance 540 nm; percentage compared to melittin; three replicates
Peptide text beside a SMILES is read from it.
Output yes for records whose Hemolysis (%) at 125 µM is lower than 4%, no for records at or above 4%.

Problem: Criterion: Hemolysis (%) at 125 µM strictly below 4%. Is it met by CC(C)C[C@@H]1NC(=O)[C@H](CCC(N)=O)NC(=O)[C@H](CCCCN)NC(=O)[C@H](CCCCN)NC(=O)[C@H](CCCCN)NC(=O)[C@H](Cc2c[nH]c3ccccc23)NC(=O)[C@H](CCCCN)NC(=O)[C@H](CC(C)C)NC(=O)[C@H](CC(C)C)NC(=O)[C@H](CCCCN)NC1=O [BPC162W, c(LKLLKWKKKQ)] (cyclo(KKKQLKLLKW)) ?
Solution: no

Problem: Check if Hemolysis (%) at 125 µM falls below 4% for CC(C)C[C@@H]1NC(=O)[C@H](CCCCN)NC(=O)[C@H](CCC(N)=O)NC(=O)[C@H](CCCCN)NC(=O)[C@H](CC(C)C)NC(=O)[C@H](CC(C)C)NC(=O)[C@H](Cc2c[nH]c3ccccc23)NC(=O)[C@H](CCCCN)NC(=O)[C@H](CCCCN)NC(=O)[C@H](CCCCN)NC1=O [BPC106W, c(KLKKKWLLKQ)] (cyclo(KKKWLLKQKL)) .
Solution: yes

Problem: Please determine if CC(C)C[C@@H]1NC(=O)[C@H](CCCCN)NC(=O)[C@H](CCCCN)NC(=O)[C@H](Cc2c[nH]c3ccccc23)NC(=O)[C@H](CCCCN)NC(=O)[C@H](CCCCN)NC(=O)[C@H](CCCCN)NC(=O)[C@H](CCCCN)NC(=O)[C@H](CCCCN)NC(=O)[C@H](CCC(N)=O)NC1=O [BPC202W, c(KKKKKWKKLQ)] (cyclo(KKKKKWKKLQ)) is below 4% in terms of Hemolysis (%) at 125 µM.
Solution: yes

Problem: # check: Hemolysis (%) at 125 µM < 4% for CC(C)C[C@@H]1NC(=O)[C@H](CCCCN)NC(=O)[C@H](CCC(N)=O)NC(=O)[C@H](CCCCN)NC(=O)[C@H](CCCCN)NC(=O)[C@H](CC(C)C)NC(=O)[C@H](Cc2c[nH]c3ccccc23)NC(=O)[C@H](CCCCN)NC(=O)[C@H](CCCCN)NC(=O)[C@H](CC(C)C)NC1=O [BPC142W, c(KLLKKWLKKQ)] (cyclo(KKQKLLKKWL))
Solution: no

---

Tested on: erythrocyte suspensions of human blood
test_name: Hemolytic activity, hemoglobin release
Type: cell-based
measurement_conditions: peptide 50 μM (table prints 50 µM); human blood erythrocytes 5% v/v; absorbance 540 nm; percentage compared to melittin; three replicates
Peptide text beside a SMILES is read from it.
I'd appreciate it if you could supply Hemolysis (%) at 50 µM values for the items below.

Problem: For CC(C)C[C@@H]1NC(=O)[C@H](CCCCN)NC(=O)[C@H](CCCCN)NC(=O)[C@H](CC(C)C)NC(=O)[C@H](CC(C)C)NC(=O)[C@H](CCC(N)=O)NC(=O)[C@H](CCCCN)NC(=O)[C@H](CCCCN)NC(=O)[C@H](CCCCN)NC(=O)[C@H](Cc2c[nH]c3ccccc23)NC1=O [BPC158W, c(LLKKLWKKKQ)] (cyclo(KKKQLLKKLW)) , write its Hemolysis (%) at 50 µM.
Solution: 10%

Problem: Answer with the recorded Hemolysis (%) at 50 µM of CC(C)C[C@@H]1NC(=O)[C@H](CCCCN)NC(=O)[C@H](CCCCN)NC(=O)[C@H](Cc2c[nH]c3ccccc23)NC(=O)[C@H](CCCCN)NC(=O)[C@H](CC(C)C)NC(=O)[C@H](CC(C)C)NC(=O)[C@H](CCCCN)NC(=O)[C@H](CCCCN)NC(=O)[C@H](CCC(N)=O)NC1=O [BPC088W, c(KKLLKWKKLQ)] (cyclo(KKLLKWKKLQ)) only.
Solution: 14%

Problem: Note down Hemolysis (%) at 50 µM recorded for CC(C)C[C@@H]1NC(=O)[C@H](CCCCN)NC(=O)[C@H](CCC(N)=O)NC(=O)[C@H](CCCCN)NC(=O)[C@H](CCCCN)NC(=O)[C@H](CC(C)C)NC(=O)[C@H](Cc2c[nH]c3ccccc23)NC(=O)[C@H](CCCCN)NC(=O)[C@H](CCCCN)NC(=O)[C@H](CC(C)C)NC1=O [BPC142W, c(KLLKKWLKKQ)] (cyclo(KKQKLLKKWL))
Solution: 16%

Problem: Tell us which Hemolysis (%) at 50 µM value is on record for CC(C)C[C@@H]1NC(=O)[C@H](CCCCN)NC(=O)[C@H](Cc2c[nH]c3ccccc23)NC(=O)[C@H](CCCCN)NC(=O)[C@H](CCCCN)NC(=O)[C@H](CCCCN)NC(=O)[C@H](CC(C)C)NC(=O)[C@H](CC(C)C)NC(=O)[C@H](CCC(N)=O)NC(=O)[C@H](CCCCN)NC1=O [BPC126W, c(LLKKKWKLKQ)] (cyclo(KKKWKLKQLL))
Solution: 5%

Problem: Report measured Hemolysis (%) at 50 µM; entry is CC(C)C[C@@H]1NC(=O)[C@H](CCCCN)NC(=O)[C@H](CCC(N)=O)NC(=O)[C@H](CCCCN)NC(=O)[C@H](CC(C)C)NC(=O)[C@H](CC(C)C)NC(=O)[C@H](Cc2c[nH]c3ccccc23)NC(=O)[C@H](CCCCN)NC(=O)[C@H](CCCCN)NC(=O)[C@H](CCCCN)NC1=O [BPC106W, c(KLKKKWLLKQ)] (cyclo(KKKWLLKQKL))
Solution: 2%
